The reported measurements were obtained from ChEMBL document CHEMBL1147738.

assay: Volume of distribution in rat; type: ADME, organism-based; conditions: Sprague-Dawley, in vivo, read-out: Vdss
reported_property: Vd (L/kg)

In the examples that follow, each entry is paired with its recorded Vd.
Cn1cc(C(N)=O)c(Nc2ccc(Br)cc2F)c(F)c1=O ... 0.8
CONC(=O)c1cn(C)c(=O)c(C)c1Nc1ccc(Br)cc1F ... 0.4
CCONC(=O)c1cn(C)c(=O)c(C)c1Nc1ccc(Br)cc1F ... 0.4

[I] Cc1c(Nc2ccc(Br)cc2F)c(C(=O)NOCCO)cn(C)c1=O
[II] CCONC(=O)c1cn(C)c(=O)c(F)c1Nc1ccc(Br)cc1F
Ask: Of the pair I and II , name the member with the lesser recorded Vd. Provide the label of your selected option as the answer.
Result: II
(II: 0.4 L/kg, I: 1.1 L/kg)
